These data points were gathered from patent US9440982B2.

# target or system: OX1 (Homo sapiens)
# Construct: expressed in transfected cells; host or cells: CHO (CHO-OX1, kept under selection antibiotic)
# Sequence (O43613 1-425): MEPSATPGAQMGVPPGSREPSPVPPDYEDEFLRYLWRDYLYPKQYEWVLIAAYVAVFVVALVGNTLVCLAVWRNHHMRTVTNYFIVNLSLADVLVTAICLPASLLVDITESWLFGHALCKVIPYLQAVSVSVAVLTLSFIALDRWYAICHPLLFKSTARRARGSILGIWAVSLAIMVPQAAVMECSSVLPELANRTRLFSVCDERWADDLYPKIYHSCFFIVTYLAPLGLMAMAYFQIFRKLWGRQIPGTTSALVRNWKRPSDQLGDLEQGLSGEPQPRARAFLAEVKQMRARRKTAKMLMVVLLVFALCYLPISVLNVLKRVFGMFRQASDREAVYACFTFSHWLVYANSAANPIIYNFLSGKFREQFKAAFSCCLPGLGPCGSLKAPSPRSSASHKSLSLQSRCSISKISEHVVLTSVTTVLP
# test summary: Orexin receptor cell-based functional assay, [Ca2+]i by FLIPR, CHO-OX1 cells
# experimental parameters: Table 2; CHO-OX1 cells, EC90 of OXA; read-out: IC50 Bioactivity OX1
pIC50: −log10 of the molar value.
value type: pIC50

Known pIC50 results, listed for orientation:
| compound | endpoint result |
| --- | --- |
| Cc1ccc(-c2ncco2)c(C(=O)N2CCC[C@@H](C)[C@H]2CNc2ccc(C(F)(F)F)cn2)c1 (racemic) [Example 113] | 7.60 |
| CC(=O)O[C@H]1C[C@@H](CNC(=O)c2cccc3cccnc23)N(C(=O)c2ccccc2-c2ccccc2)C1 [Example 131] | 7.28 |

I. CCc1cnc(NC[C@@H]2[C@H](C)CCCN2C(=O)c2nc(C)sc2-c2ccc(F)cc2)nc1 (racemic) [Example 16]
II. Cc1nc(C(=O)N2CCC[C@@H](C)[C@H]2COc2nc3ccccc3o2)c(-c2ccc(F)cc2)s1 (racemic) [Example 80]
Req: Identify the entry with the larger pIC50. Options: I and II Use the label to indicate which entry you chose.
Resp: I
